# experimental.system: HCV NS3 protease genotype 3a (3A-1) (Hepatitis C virus genotype 3a, UniProt Q81258)
# test.description: HCV NS3 protease time-resolved fluorescence (TRF) assay, genotype 3a
# Type: biochemical
# measurement.setup: Ki 3a
Structures can show the parent of a compound that is named as a salt.
# key: entry, value: Ki
Respond with the bare value in nM.

compound: C=C[C@@H]1CC1(NC(=O)[C@@H]1C[C@@H]2CN1C(=O)[C@H](C(C)(C)C)NC(=O)O[C@@H]1C[C@H]1CCCCCc1c(nc3ccccc3c1OC1C3CNCC1COC3)O2)C(=O)NS(=O)(=O)C1(C)CC1 (single isomer, unassigned) [Example 259, trifluoroacetate]
experimental.system: HCV NS3 protease genotype 3a (3A-1) (Hepatitis C virus genotype 3a, UniProt Q81258)
Ki (nM): 7.4

Considering C=C[C@@H]1C[C@]1(NC(=O)[C@@H]1C[C@@H]2CN1C(=O)[C@H](C1CCCCC1)NC(=O)O[C@@H]1C[C@H]1CCCCCc1c(nc3ccccc3c1OC1CCN(CCOC)CC1)O2)C(=O)NS(=O)(=O)C1(C)CC1 [Example 237, formate] , its Ki with HCV NS3 protease genotype 3a (3A-1) (Hepatitis C virus genotype 3a, UniProt Q81258) was recorded as 0.8
